- Species: Rattus norvegicus
- assay_comment: Open TG-GATES - Regimen: Daily Repeat
- Type: toxicity, organism-based, Sprague-Dawley
- Parameters: regimen Daily Repeat, gender Male, age 6 weeks
- condition_summary: in vivo, po, 0 mg/kg, […], tissue Plasma, route gavage, dose level Control, time 7 day
measure: IP (mg/dL)
Write the number in mg/dL without appending the unit.

Ask: For CC(CCc1ccccc1)NCC(O)c1ccc(O)c(C(N)=O)c1 (stereo not drawn) , what is its reported IP?
Result: 7.8

Ask: Okay, and `CC[C@@H](CO)NCCN[C@@H](CC)CO` ?
Result: 7.3

Ask: Okay, and `O=C(O)COc1nn(Cc2ccccc2)c2ccccc12` ?
Result: 8

Ask: Okay, and CC(=O)N1CCN(c2ccc(OCC3COC(Cn4ccnc4)(c4ccc(Cl)cc4Cl)O3)cc2)CC1 (stereo not drawn) ?
Result: 6.7

Ask: Okay, and CC(N)=O [ACETAMIDE] ?
Result: 6.6

Ask: Okay, and CC(C)Cc1ccc(C(C)C(=O)O)cc1 (stereo not drawn) ?
Result: 7.6

Ask: Okay, and `CCN(CC)N=O` ?
Result: 8.5

Ask: Okay, and `CC(=O)Nc1ccc2c(c1)Cc1ccccc1-2` ?
Result: 7.5

----------
- Organism: Rattus norvegicus
- assay_comment: Open TG-GATES - Regimen: Single
- Format: toxicity, organism-based, Sprague-Dawley
- Parameters: regimen Single, gender Male, age 6 weeks
- condition_summary: in vivo, po, 0 mg/kg, 6 h, tissue Plasma, route gavage, dose level Control
Threshold 4 meq/L. K below it: 1.0. K at it or above: 0.0.

Ask: Decide: K of CC[C@@H](CO)NCCN[C@@H](CC)CO [ETHAMBUTOL] strictly below 4 meq/L?
Result: 0.0

Ask: Okay, and CC(=O)Nc1ccc2c(c1)Cc1ccccc1-2 [2-ACETYLAMINOFLUORENE] ?
Result: 0.0

Ask: Okay, and CCN(CC)N=O [N-NITROSODIETHYLAMINE] ?
Result: 1.0

Ask: Okay, and CC(C)Cc1ccc(C(C)C(=O)O)cc1 (stereo unspecified) [IBUPROFEN] ?
Result: 0.0

Ask: Okay, and O=C(O)COc1nn(Cc2ccccc2)c2ccccc12 [BENDAZAC] ?
Result: 0.0

----------
- Species: Rattus norvegicus
- assay_comment: Open TG-GATES - Regimen: Single
- Format: toxicity, organism-based, Sprague-Dawley
- Design: regimen Single, gender Male, age 6 weeks
- condition_summary: in vivo, po, 0 mg/kg, 24 h, tissue Blood, route gavage, dose level Control
measure: APTT (s)
Write the number in s without appending the unit.

Ask: For CC(C)Cc1ccc(C(C)C(=O)O)cc1 (configuration not stated) , what is its reported APTT?
Result: 20.3

Ask: Okay, and `O=C(O)COc1nn(Cc2ccccc2)c2ccccc12` ?
Result: 17

Ask: Okay, and `CC(=O)Nc1ccc2c(c1)Cc1ccccc1-2` ?
Result: 20.8

Ask: Okay, and CC(CCc1ccccc1)NCC(O)c1ccc(O)c(C(N)=O)c1 (configuration not stated) ?
Result: 16.3

Ask: Okay, and `CCN(CC)N=O` ?
Result: 18.9

Ask: Okay, and `CC[C@@H](CO)NCCN[C@@H](CC)CO` ?
Result: 22.2

Ask: Okay, and CC(=O)N1CCN(c2ccc(OCC3COC(Cn4ccnc4)(c4ccc(Cl)cc4Cl)O3)cc2)CC1 (configuration not stated) ?
Result: 19.8
